Biological target: T1, 4H3592-bH
T1 chain: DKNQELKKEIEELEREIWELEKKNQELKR
Test: two-hybrid library CCNG1;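 further: natural log of median RNA to DNA barcode read ratio; higher means stronger binding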
# cutoff 1 applies to interaction score; >= gives Met, < gives Not met

Evaluate DENQELEKEIEELERKIWELKKKNQELKR [4H1072-bH] : interaction score at minimum 1?
Met

Evaluate DKNQELKKEIEELEREIWELEKKNQELKR [4H3592-bH] : interaction score at minimum 1?
Not met

Evaluate DENQELEKKIEELKRKIWELKKENQELER [4H1387-bH] : interaction score at minimum 1?
Met

Evaluate DENQELEKKIEELKRKNWELKKKIQELKR [4H1406-bH] : interaction score at minimum 1?
Met

Evaluate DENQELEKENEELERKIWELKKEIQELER [4H1193-bH] : interaction score at minimum 1?
Not met
